# tested-on: Human PAF Receptor (Homo sapiens)
# Construct: The platelets were sampled from healthy males by an ordinary method; endogenous in cells; host or cells: human platelets from healthy males (intact platelet suspension)
# assay-info: Human PAF receptor binding assay (3H-PAF, platelets)
# condition-description: 3H-PAF 0.6 to 1 nM, 37° C., read-out: PAF receptor antagonism IC50
pIC50: −log10 of the molar value.
measured-property: pIC50

CCCCCCCCCCCCCCCCCC(=O)N1CCN(C(=O)OCC(COC(=O)N(Cc2cccc[n+]2CC)C(=O)c2ccccc2OC)OC)CC1 (stereo not shown) = 7.60
CC[n+]1ccccc1CN(C(=O)OCC(COCc1ccc(-c2ccccc2)cc1)OC)C(=O)c1ccccc1OC (stereo not shown) = 8.66
CCCCCCCCCCCCCCCCCCOCCCNC(=O)OCC(COC(=O)N(Cc1cccc[n+]1CC)C(=O)c1ccccc1OC)OC (stereo not shown) = 8.46
CC[n+]1ccccc1CN(C(=O)OCC(COC(=O)NCCCCCCCCCCNC(=O)N(C)C)OC)C(=O)c1ccccc1OC (stereo not shown) = 8.72
CC[n+]1ccccc1CN(C(=O)OCC(COCc1cc(OC)c(OCC2CCCCC2)c(OC)c1)OC)C(=O)c1ccccc1OC (stereo not shown) = 8.04

(A) CC[n+]1ccccc1CN(C(=O)OCC(COC(=O)Nc1ccc2c(c1)Cc1ccccc1-2)OC)C(=O)c1ccccc1OC (stereo not shown)
(B) CCCCCCCCCCCCCCCCCCOC(=O)N1CCN(C(=O)OCC(COC(=O)N(Cc2cccc[n+]2CC)C(=O)c2ccccc2OC)OC)CC1 (stereo not shown)
Please let me know which one, A or B , has a lower measured pIC50 value. // respond with label for picked entry A

###

# tested-on: Human PAF Receptor (Homo sapiens, UniProt P25105)
# Construct: The platelets were sampled from healthy males by an ordinary method; endogenous in cells
# Sequence (P25105 whole entry): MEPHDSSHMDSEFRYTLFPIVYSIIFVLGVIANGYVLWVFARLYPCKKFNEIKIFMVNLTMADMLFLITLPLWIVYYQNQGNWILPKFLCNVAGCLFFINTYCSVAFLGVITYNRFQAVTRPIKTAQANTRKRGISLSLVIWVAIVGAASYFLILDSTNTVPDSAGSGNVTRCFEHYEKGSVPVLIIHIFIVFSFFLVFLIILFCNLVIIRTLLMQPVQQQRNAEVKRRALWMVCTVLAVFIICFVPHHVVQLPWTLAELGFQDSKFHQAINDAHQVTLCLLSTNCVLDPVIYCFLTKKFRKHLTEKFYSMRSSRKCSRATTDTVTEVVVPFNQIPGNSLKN
# assay-info: Human PAF receptor binding assay (3H-PAF, platelets)
# condition-description: 3H-PAF 0.6 to 1 nM, 37° C., read-out: PAF receptor antagonism IC50
pIC50: −log10 of the molar value.
measured-property: pIC50

Solved entries (count: 2):
CCCCCCCCCCCCCCCCCCOc1c(OC)cc(COCC(COC(=O)N(Cc2cccc[n+]2CC)C(=O)c2ccccc2OC)OC)cc1OC (stereo not shown) = 9.15
CCCCCCCCCCCCCCCCCCNC(=O)OCCCNC(=O)OCC(COC(=O)N(Cc1cccc[n+]1CC)C(=O)c1ccccc1OC)OC (stereo not shown) = 9.72

(1) CC[n+]1ccccc1CN(C(=O)OCC(COC(=O)NCCCC(=O)N1CCOCC1)OC)C(=O)c1ccccc1OC (stereo not shown)
(2) CC[n+]1ccccc1CN(C(=O)OCC(COC(=O)NCCc1ccc(S(N)(=O)=O)cc1)OC)C(=O)c1ccccc1OC (stereo not shown)
(3) CC[n+]1ccccc1CN(C(C)=O)C(=O)OCC(COCCc1cc(OC)c(OC)c(OC)c1)OC (stereo not shown)
Please produce an ascending ranking of these compounds based on pIC50. State the ranking by listing the labels in the requested order. 3, 1, 2

(a) CC[n+]1ccccc1CN(C(C)=O)C(=O)OCC(COc1cc(OC)c(OC)c(OC)c1)OC (stereo not shown)
(b) CC[n+]1ccccc1CN(C(=O)OCC(COC(=O)NCC1CCCO1)OC)C(=O)c1ccccc1OC (stereo not shown)
(c) CCCCCOCCCCCOCCCCCNC(=O)OCC(COC(=O)N(Cc1cccc[n+]1CC)C(=O)c1ccccc1OC)OC (stereo not shown)
// sort entries: pIC50, high to low State the ranking by listing the labels in the requested order. c, b, a
